Quick reference: IC50 of the listed items.
assay: Inhibition of adenosine transporter in human HeLa cells assessed as reduction in [3H]adenosine uptake preincubated for 30 mins followed by [3H]adenosine addition and measured after 60 mins; type: cell-based

Reference set (2 entries):
Compound	IC50
CCn1c(-c2cnc(C)nc2)nc2c(O[C@H]3CCN(C(=O)C4CCOCC4)C3)ncnc21	> 10 µM
CCn1c(-c2cnc(C)nc2)nc2c(N[C@H]3CCN(C(=O)C4CCOC4)C3)ncnc21 (stereo partly drawn)	> 10 µM

Let us examine a further case.
Which IC50 value is on record for CCC(=O)N1CC[C@H](Nc2ncnc3c2nc(-c2cnc(C)nc2)n3CC)C1 ? > 10 µM

----------
Vd: recorded values
assay: Volume of distribution in Wistar Han rat; format: ADME; conditions: in vivo
Quick note: give the figure in L/kg, leave out the unit.

Reference set, count: 2
Compound	Measured parameter	Number
CCn1c(-c2cnc(C)nc2)nc2c(O[C@H]3CCN(C(=O)C4CCOC4)C3)ncnc21 (stereo partly drawn)	Vd	0.5
CCn1c(-c2cnc(C)nc2)nc2c(O[C@H]3CCN(C(=O)C4CC(F)(F)C4)C3)ncnc21	Vd	0.5

API: the following record is the query input.
Which measured Vd value corresponds to CCn1c(-c2cnc(C)nc2)nc2c(N[C@H]3CCN(C(=O)C4CCC4)C3)ncnc21 ? 0.5

----------
test: Unbound volume of distribution in Beagle dog; format: ADME, Canis lupus familiaris; conditions: in vivo
Measured parameter: Vdu (L/kg)
Hi! Could you send only the number? It should be in L/kg, unit omitted.

Recorded Vdu for CCn1c(-c2cnc(C)nc2)nc2c(O[C@H]3CCN(C(=O)C4CC(F)(F)C4)C3)ncnc21 , please? 2.5

Entry CCn1c(-c2cnc(C)nc2)nc2c(N[C@H]3CCN(C(=O)N4CC(OC)C4)C3)ncnc21 please 1.9

// next record CCn1c(-c2cnc(C)nc2)nc2c(N[C@H]3CCN(C(=O)C4CC4)C3)ncnc21 1.8

----------
assay: Lipophilicity, log D of the compound by HPLC analysis; format: physicochemical
Measured parameter: logD

Structure smiles string	logD
CCn1c(-c2cnc(C)nc2)nc2c(N[C@H]3CCN(C(=O)N4CC(OC)C4)C3)ncnc21	0.7
CCn1c(-c2ccc(C(F)(F)F)nc2)nc2c(O[C@H]3CCN(C(=O)[C@H]4C[C@@H](OC)C4)C3)ncnc21	2.2
CCn1c(-c2cnc(C)nc2)nc2c(N[C@H]3CCN(C(=O)C4CC(F)(F)C4)C3)ncnc21	1.5

With those in mind, consider the next compound.
Return reported logD; argument: CCn1c(-c2ccc(C(F)(F)F)nc2)nc2c(O[C@H]3CCN(C(=O)C4CC4)C3)ncnc21 2.3

----------
assay: Unbound volume of distribution in Wistar Han rat; assay type: ADME; settings: in vivo
# Vdu annotations
Provide the reading as a plain figure in L/kg.

Compound	Number
CCn1c(-c2cnc(C)nc2)nc2c(N[C@H]3CCN(C(=O)C4CCOCC4)C3)ncnc21	4.3
CCn1c(-c2cnc(C)nc2)nc2c(O[C@H]3CCN(C(=O)C4CCOCC4)C3)ncnc21	1.5
CCn1c(-c2cnc(C)nc2)nc2c(O[C@H]3CCN(C(=O)C4CC4)C3)ncnc21	2.8
CCn1c(-c2cnc(C)nc2)nc2c(N[C@H]3CCN(C(=O)c4cocn4)C3)ncnc21	6.1
CCn1c(-c2ccc(C(F)(F)F)nc2)nc2c(O[C@H]3CCN(C(=O)[C@H]4C[C@@H](OC)C4)C3)ncnc21	13
CCC(=O)N1CC[C@H](Nc2ncnc3c2nc(-c2cnc(C)nc2)n3CC)C1	3.6
CCn1c(-c2cnc(C)nc2)nc2c(O[C@H]3CCN(C(=O)C4CCC4)C3)ncnc21	4
CCn1c(-c2cnc(C)nc2)nc2c(O[C@H]3CCN(C(=O)N4CC(OC)C4)C3)ncnc21	2.1
CCn1c(-c2ccc(C(F)(F)F)nc2)nc2c(O[C@H]3CCN(C(=O)c4cocn4)C3)ncnc21	2.6
CCn1c(-c2cnc(C)nc2)nc2c(O[C@H]3CCN(C(=O)C4CCOC4)C3)ncnc21 (some centres not stated)	0.9

// lookup Vdu for CCn1c(-c2cnc(C)nc2)nc2c(N[C@H]3CCN(C(=O)C4CC4)C3)ncnc21 6.3

For CCn1c(-c2cnc(C)nc2)nc2c(N[C@H]3CCN(C(=O)[C@H]4C[C@@H](OC)C4)C3)ncnc21 then? 4.1
